Reference source for all entries: patent US20200207841A1

- target_desc: T1, EDIII-DV1 (Dengue virus serotype 1 (DV1), UniProt P17763 581-673)
- T1 construct: also called EDIII of DV1; EDIII-DVI
Listing of recorded koff by entry.
A complete answer gives the number and then names the unit.

>  <binder>
VH_G27P (antibody, V domains shown, also called 4E5-G27P; copies: 2 + 2) VH: VKLLEQSGAELVKPGASVRLSCTASPFNIKDTYMSWVKQRPEQGLEWIGRIDPENGDTKYDPKFQGKATITADTSSNTAYLHLSSLTSGDTAVYYCSRGWEGFAYWGQGTLVTVSA VL: ELVMTQTPASLAVSLGQRATISCRASENVDKYGNSFMHWYQQKAGQPPKLLIYRASELQWGIPARFSGSGSRTDFTLTINPVEADDVATYFCQRSNEVPWTFGGGTKLEIK

>  <assay_value>
0.00841 s⁻¹

$$$$
>  <binder>
VH_G27_del (antibody, V domains shown) VH: VKLLEQSGAELVKPGASVRLSCTASFNIKDTYMSWVKQRPEQGLEWIGRIDPENGDTKYDPKFQGKATITADTSSNTAYLHLSSLTSGDTAVYYCSRGWEGFAYWGQGTLVTVSA VL: ELVMTQTPASLAVSLGQRATISCRASENVDKYGNSFMHWYQQKAGQPPKLLIYRASELQWGIPARFSGSGSRTDFTLTINPVEADDVATYFCQRSNEVPWTFGGGTKLEIKR

>  <assay_value>
0.000471 s⁻¹

$$$$
>  <binder>
VH_G27A (antibody, V domains shown) VH: VKLLEQSGAELVKPGASVRLSCTASAFNIKDTYMSWVKQRPEQGLEWIGRIDPENGDTKYDPKFQGKATITADTSSNTAYLHLSSLTSGDTAVYYCSRGWEGFAYWGQGTLVTVSA VL: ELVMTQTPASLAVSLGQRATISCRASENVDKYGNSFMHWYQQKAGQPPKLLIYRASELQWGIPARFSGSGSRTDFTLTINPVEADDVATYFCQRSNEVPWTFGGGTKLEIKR

>  <assay_value>
8.38e-05 s⁻¹

$$$$

Please look at the following binder next.
Q: # query: koff of entry VH_A25_del (antibody, V domains shown, also called 4E5-del-25; copies: 2 + 2) VH: VKLLEQSGAELVKPGASVRLSCTSGFNIKDTYMSWVKQRPEQGLEWIGRIDPENGDTKYDPKFQGKATITADTSSNTAYLHLSSLTSGDTAVYYCSRGWEGFAYWGQGTLVTVSA VL: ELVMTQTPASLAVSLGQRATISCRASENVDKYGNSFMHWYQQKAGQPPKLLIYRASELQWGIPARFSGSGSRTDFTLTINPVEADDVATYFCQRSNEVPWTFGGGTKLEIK
A: 0.00133 s⁻¹
